Hey, just so you know, these numbers are from PubChem BioAssay.

Would you kindly list fluorescence, percent of control (lower = inhibition) for each of these compounds?
target_entity: Cell division control protein 42 homolog (Homo sapiens) (UniProt P60953)
Sequence (P60953 whole entry, looked up): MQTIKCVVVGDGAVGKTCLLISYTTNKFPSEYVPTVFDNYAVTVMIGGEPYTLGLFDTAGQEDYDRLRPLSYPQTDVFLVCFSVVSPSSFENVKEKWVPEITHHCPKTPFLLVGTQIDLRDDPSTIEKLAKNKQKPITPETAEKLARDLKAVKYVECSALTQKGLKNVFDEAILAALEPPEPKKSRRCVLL
assay_explanation: inhibition of fluorescent GTP binding to wildtype Cdc42 – biochemical, multiplex bead flow cytometry, Bodipy-FL-GTP, dose response (AID 1334)
experimental_setup: bead-based flow cytometry, Bodipy-FL-GTP binding to GST-Cdc42; at 100 µM (top of the series) unless noted
Results with a measured potency or affinity are listed apart.
Give bare numbers, in %.

| test_smiles | result_number |
| --- | --- |
| CN(/N=C/c1ccco1)C1=NS(=O)(=O)c2ccccc21 | 32 |
| COc1ccc(-c2cc(=O)c(C(=O)c3ccc(C)cc3)n[nH]2)cc1 | 35.8 |
| c1ccc(-c2onc3c2CCCC3)cc1 | 97.3 |
| Cc1ccc(OCCn2cc(C(=O)O)c3ccccc32)cc1C | 60.4 |
| COc1ccc(C(=O)O)c(OCc2c(C)cccc2C)c1 | 59 |

Turning now to a further record.
INPUT: Report fluorescence, percent of control (lower = inhibition) for Cc1ccc(/C=N/N(C)C2=NS(=O)(=O)c3ccccc32)o1 please.
OUTPUT: 27.1

###

target_entity: ATP-binding cassette sub-family B member 6 (Homo sapiens) (UniProt Q9NP58)
Sequence (Q9NP58 whole entry, looked up): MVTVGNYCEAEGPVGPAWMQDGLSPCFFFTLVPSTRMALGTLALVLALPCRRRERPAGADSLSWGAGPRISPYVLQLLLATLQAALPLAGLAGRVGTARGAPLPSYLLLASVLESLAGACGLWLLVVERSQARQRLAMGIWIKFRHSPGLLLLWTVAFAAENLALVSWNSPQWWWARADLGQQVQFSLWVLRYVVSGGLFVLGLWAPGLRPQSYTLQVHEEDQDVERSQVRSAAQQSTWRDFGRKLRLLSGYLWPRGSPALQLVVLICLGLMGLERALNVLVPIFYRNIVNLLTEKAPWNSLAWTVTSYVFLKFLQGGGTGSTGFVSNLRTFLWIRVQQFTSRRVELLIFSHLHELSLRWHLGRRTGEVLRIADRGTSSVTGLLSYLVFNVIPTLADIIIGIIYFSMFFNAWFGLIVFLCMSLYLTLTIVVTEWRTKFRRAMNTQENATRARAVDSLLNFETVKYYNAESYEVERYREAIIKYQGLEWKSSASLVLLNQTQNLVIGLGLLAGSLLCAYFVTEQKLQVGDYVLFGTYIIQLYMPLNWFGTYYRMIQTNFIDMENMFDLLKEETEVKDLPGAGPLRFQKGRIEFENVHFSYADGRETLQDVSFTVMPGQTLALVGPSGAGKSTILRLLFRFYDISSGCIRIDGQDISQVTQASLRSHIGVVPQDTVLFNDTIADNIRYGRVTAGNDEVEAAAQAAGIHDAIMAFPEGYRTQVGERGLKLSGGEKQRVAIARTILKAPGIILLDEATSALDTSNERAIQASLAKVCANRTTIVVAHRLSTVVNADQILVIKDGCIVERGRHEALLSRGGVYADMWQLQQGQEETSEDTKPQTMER
assay_explanation: blockers of ABCB6-driven porphyrin uptake – K562-ABCB6 cells, flow cytometry, validation set, pilot screen (AID 588550);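 note: 0% = DMSO wells and 100% = benzethonium chloride 70 µM positive control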
experimental_setup: K562-ABCB6 porphyrin accumulation, 1 h, at 10 µM, stronger effect = higher value
property_measured: inhibition (%)
Numbers only, in %.

Provide inhibition for all items below, preserving their order.
1. Nc1cc(-c2ccncc2)c[nH]c1=O
2. O=C(NCCN1CCN(c2ccccc2)CC1)c1cccc(Br)c1
3. CCC(C)n1ncn(-c2ccc(N3CCN(c4ccc(OCC5COC(Cn6cncn6)(c6ccc(Cl)cc6Cl)O5)cc4)CC3)cc2)c1=O (stereo not drawn)
4. COc1cc2cc(C(=O)O)[nH]c2c(OC)c1OC
5. CC1(C)C(=O)OC(c2cccs2)C2(CCCCC2)C1=O (stereo not drawn)
6. c1cc(-c2ccncc2)ccn1
7. NC(=O)[C@@H]1[C@@H]2C(=O)N(c3ccc(F)cc3)C(=O)[C@@H]2[C@H]2C=Cc3ccccc3N21

OUTPUT:
-6
6
7
-4
2
4
-37

Provide inhibition for all items below, preserving their order.
1. CC(=O)CC(c1ccc([N+](=O)[O-])cc1)c1c(O)c2ccccc2oc1=O (stereo not drawn)
2. COc1cccc(-n2c(C)c3c(OC)cccc(=O)c3c2C)c1
3. CC1Cc2ccccc2N1NC(=O)c1ccc(Cl)c(S(N)(=O)=O)c1 (stereo not drawn)
4. COc1ccc(C2=NOC(COc3ccc4c(C)cc(=O)oc4c3)C2)c(OC)c1 (stereo not drawn)
5. COC(=O)c1ccccc1NC(=O)c1ccc(COc2ccc3c(c2)CCC3)cc1
6. CCCN1CCC(NC(=O)Nc2ccc(Br)cc2)CC1
7. S=C(NCCOCCOCCNC(=S)Nc1ccccc1)Nc1ccccc1
8. CCCCNc1ccc(C(=O)OCCN(C)C)cc1

OUTPUT:
[2, 0, 7, 10, -3, 16, 4, 15]

Provide inhibition for all items below, preserving their order.
1. O=C(Nc1ccccc1C(=O)N1CCCCCC1)c1ccccc1Cl
2. COC(=O)c1cc(Br)c(=O)n(CCc2ccc(O)cc2)c1
3. O=C(Nc1ccc(N2CCOCC2)cc1)c1ccc(-c2ccccc2[N+](=O)[O-])o1
4. CC(C)(C)NCC(O)COc1ccccc1C(=O)CCc1ccccc1 (stereo not drawn)
5. N#C/C(=C/c1ccccc1)C(=O)NCc1ccccc1

OUTPUT:
7
8
6
8
3

Provide inhibition for all items below, preserving their order.
1. CC(C)Oc1ccc2c(=O)c(-c3ccccc3)coc2c1
2. CCc1oc2ccccc2c1C(=O)c1cc(Br)c(O)c(Br)c1

OUTPUT:
[13, 12]

INPUT: Report inhibition for CCOC(=O)C1(Cc2cccc(Cl)c2)CCCN(C2CCN(C(C)=O)CC2)C1 (stereo not drawn) please.
OUTPUT: 13
